System: PCP-induced hyperactivity in mice
Experiment: In vivo efficacy test (PCP-induced high locomotor activity in mice)
Conditions: male ICR mice, oral administration 45 minutes before PCP 7 mg/kg i.p.; dose significantly reducing PCP-induced hyperactivity vs model group
reportedEndpoint: Effective dose (mg/kg)
Please reply with the bare figure in mg/kg and do not write the unit itself.

# example entries with known answers
Name the recorded Effective dose of the compound listed here: Cl.O=C1CCCc2cc(CCN3CCN(c4cccc5sccc45)CC3)ccc2N1
1

Name the recorded Effective dose of the compound listed here: O=c1ccc2ccc(CCCCN3CCN(c4cccc5sccc45)CC3)cc2[nH]1
1

Name the recorded Effective dose of the compound listed here: c1cc(N2CCN(CCc3ccc4ncsc4c3)CC2)c2ccsc2c1
0.3

Name the recorded Effective dose of the compound listed here: COc1cc2c(N3CCN(CCc4ccc5c(c4)CCC(=O)N5)CC3)cccc2s1
1

Name the recorded Effective dose of the compound listed here: O=C1Cc2cc(CCN3CCN(c4cccc5sc(F)cc45)CC3)ccc2N1
1

Continuing:
Name the recorded Effective dose of the compound listed here: O=C1COc2ccc(CCCCN3CCN(c4cccc5sccc45)CC3)cc2N1
3

Name the recorded Effective dose of the compound listed here: Cl.O=C1CCc2ccc(CCN3CCN(c4cccc5sc(F)cc45)CC3)cc2N1
1

====

Target: human recombinant D2 receptor (Homo sapiens (Human), UniProt P14416)
Sequence (P14416 whole entry): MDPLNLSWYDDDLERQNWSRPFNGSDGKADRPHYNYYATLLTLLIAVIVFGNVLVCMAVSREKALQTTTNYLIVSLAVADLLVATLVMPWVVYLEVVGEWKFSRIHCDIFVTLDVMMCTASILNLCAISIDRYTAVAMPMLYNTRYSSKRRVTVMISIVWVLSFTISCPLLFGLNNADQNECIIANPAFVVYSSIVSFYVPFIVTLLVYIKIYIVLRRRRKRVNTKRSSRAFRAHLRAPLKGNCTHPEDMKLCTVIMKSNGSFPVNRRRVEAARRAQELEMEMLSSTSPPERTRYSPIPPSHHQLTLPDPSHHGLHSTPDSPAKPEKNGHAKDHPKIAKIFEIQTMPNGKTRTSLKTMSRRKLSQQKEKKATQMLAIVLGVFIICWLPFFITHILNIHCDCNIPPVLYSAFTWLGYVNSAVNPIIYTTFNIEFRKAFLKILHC
Assay: D2 receptor antagonism activity test (inhibition of dopamine-induced decrease of cAMP production, LANCE cAMP 384 Kit)
Conditions: read-out: D2 receptor antagonism (IC50, mol/L), HEK293 cells expressing human recombinant D2 receptor, 0.1 nM-10000 nM
Structures can show the parent of a compound that is named as a salt.
reportedEndpoint: IC50
Number plus unit, in that order.

# example entries with known answers
Name the recorded IC50 of the molecule listed here: O=c1[nH]cnc2ccc(CCCCCN3CCN(c4cccc5sccc45)CC3)cc12 [Compound of example 34, hydrochloride]
324 nM

Name the recorded IC50 of the molecule listed here: O=C1CCc2cc(CCN3CCN(c4cccc5sc(F)cc45)CC3)ccc2N1 [Compound of example 65]
7.76 nM

Name the recorded IC50 of the molecule listed here: CC(=O)Nc1nc2cccc(CCN3CCN(c4cccc5sccc45)CC3)c2s1 [Compound of example 119]
4.69 nM

Continuing:
Name the recorded IC50 of the molecule listed here: O=C1Cc2cc(CCN3CCC(c4cccc5sccc45)CC3)ccc2N1 [Compound of example 82]
10.9 nM

====

Listed here: items and their measured EC50.
Target: human recombinant 5-HT1A receptor (Homo sapiens (Human))
Sequence (P08908 whole entry): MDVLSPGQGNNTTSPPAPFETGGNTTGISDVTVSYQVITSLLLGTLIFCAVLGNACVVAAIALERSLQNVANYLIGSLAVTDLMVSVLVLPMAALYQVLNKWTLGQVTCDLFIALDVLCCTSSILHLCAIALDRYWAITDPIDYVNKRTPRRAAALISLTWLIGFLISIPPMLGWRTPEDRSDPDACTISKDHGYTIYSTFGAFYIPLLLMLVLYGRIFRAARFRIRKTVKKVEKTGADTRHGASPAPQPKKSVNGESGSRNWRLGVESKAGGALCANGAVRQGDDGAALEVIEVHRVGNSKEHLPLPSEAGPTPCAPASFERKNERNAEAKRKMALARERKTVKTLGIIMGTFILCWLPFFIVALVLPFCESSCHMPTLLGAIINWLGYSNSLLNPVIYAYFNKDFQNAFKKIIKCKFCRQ
Assay: 5-HT1A receptor agonism activity test (inhibition of cAMP production, LANCE cAMP 384 Kit)
Details: HEK293 cells expressing human recombinant 5-HT1A receptor; test concentration 0.1 nM-10000 nM; read-out: 5-HT1A receptor agonism (EC50, mol/L)
Counter-ions that a name gives are not always drawn.
Please reply with the bare figure in nM and do not write the unit itself.

Lab note: human recombinant 5-HT1A receptor (Homo sapiens (Human)) assay, enter EC50 for CC(=O)Nc1nc2cccc(CCN3CCN(c4cccc5sccc45)CC3)c2s1 here
0.787

Lab note: human recombinant 5-HT1A receptor (Homo sapiens (Human)) assay, enter EC50 for O=c1ccc2ccc(CCCCCN3CCN(c4cccc5sccc45)CC3)cc2[nH]1 here
1.95

Lab note: human recombinant 5-HT1A receptor (Homo sapiens (Human)) assay, enter EC50 for O=C1CCc2cc(CCCCN3CCN(c4cccc5sc(F)cc45)CC3)ccc2N1 here
20.8

Continuing:
Lab note: human recombinant 5-HT1A receptor (Homo sapiens (Human)) assay, enter EC50 for O=c1[nH]cnc2ccc(CCCCCN3CCN(c4cccc5sccc45)CC3)cc12 [Compound of example 34, hydrochloride] here
54
